system_tested: ICE (Homo sapiens, UniProt P29466)
Provide the reported log10(IC50) of each item.
Kindly note that the scale is log10 and the underlying IC50 is in µM.

log10(IC50) reported for this compound O=C[C@H](CC(=O)O)NS(=O)(=O)c1ccccc1-c1ccccc1 [Example 1] : 1.31

log10(IC50) reported for this compound O=CC(CC(=O)O)NS(=O)(=O)c1ccccc1[N+](=O)[O-] (stereo not drawn) [Example 46] : 2.11

log10(IC50) reported for this compound O=C[C@H](CC(=O)O)NS(=O)(=O)c1ccccc1 [Example 2] : 1.94

log10(IC50) reported for this compound CCCCC(C)c1ccc(Oc2ccccc2S(=O)(=O)NC(C=O)CC(=O)O)cc1 (stereo not drawn) [Example 21] : 0.79

log10(IC50) reported for this compound CC(C)COc1ccccc1S(=O)(=O)NC(C=O)CC(=O)O (stereo not drawn) [Example 10] : 1.34

log10(IC50) reported for this compound CCCC(C)C(=O)Nc1ccccc1S(=O)(=O)N[C@H](C=O)CC(=O)O (stereo partly drawn) [Example 11] : 1.74

log10(IC50) reported for this compound CCC(CC)COc1ccccc1S(=O)(=O)NC(C=O)CC(=O)O (stereo not drawn) [Example 29] : 0.93

log10(IC50) reported for this compound Cc1ccccc1-c1ccccc1S(=O)(=O)NC(C=O)CC(=O)O (stereo not drawn) [Example 32] : 1.45

log10(IC50) reported for this compound CCC(C)c1ccc(Oc2ccccc2S(=O)(=O)NC(C=O)CC(=O)O)cc1 (stereo not drawn) [Example 19] : 0.34

----------
system_tested: ICE (Homo sapiens, UniProt P29466)
Sequence (P29466 120-297 limits assumed): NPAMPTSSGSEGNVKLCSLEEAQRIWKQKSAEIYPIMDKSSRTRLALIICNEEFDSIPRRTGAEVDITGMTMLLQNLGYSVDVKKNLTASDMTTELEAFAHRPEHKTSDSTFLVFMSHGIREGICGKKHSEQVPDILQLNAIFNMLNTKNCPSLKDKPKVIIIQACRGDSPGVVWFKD
Sequence (P29466 317-404 limits assumed): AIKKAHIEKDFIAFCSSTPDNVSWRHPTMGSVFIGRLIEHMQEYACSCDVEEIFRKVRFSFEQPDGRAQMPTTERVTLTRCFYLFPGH
Provide the reported log10(Ki) of each item.
Kindly note that the scale is log10 and the underlying Ki is in nM.

log10(Ki) reported for this compound O=CC(CC(=O)O)NS(=O)(=O)c1ccccc1CCc1ccccc1 (stereo not drawn) [Example 13] : 3.85

log10(Ki) reported for this compound Cc1ccccc1-c1ccccc1S(=O)(=O)NC(C=O)CC(=O)O (stereo not drawn) [Example 32] : 3.85

log10(Ki) reported for this compound O=CC(CC(=O)O)NS(=O)(=O)c1ccccc1Sc1ccccc1 (stereo not drawn) [Example 39] : 3.04

log10(Ki) reported for this compound O=CC(CC(=O)O)NS(=O)(=O)c1ccccc1-c1cccc2ccccc12 (stereo not drawn) [Example 33] : 3.85

log10(Ki) reported for this compound O=CC(CC(=O)O)NS(=O)(=O)c1ccccc1OCCc1ccccc1 (stereo not drawn) [Example 17] : 2.95

log10(Ki) reported for this compound Cc1cccc(S(=O)(=O)NC(C=O)CC(=O)O)c1Oc1ccc(C(C)C)cc1 (stereo not drawn) [Example 41] : 3.18

log10(Ki) reported for this compound CCC(C)c1ccc(Oc2ccccc2S(=O)(=O)NC(C=O)CC(=O)O)cc1 (stereo not drawn) [Example 19] : 2.70

log10(Ki) reported for this compound O=C[C@H](CC(=O)O)NS(=O)(=O)c1ccccc1 [Example 2] : 3.83

log10(Ki) reported for this compound Cc1cccc(S(=O)(=O)NC(C=O)CC(=O)O)c1-c1ccccc1 (stereo not drawn) [Example 37] : 3.28

log10(Ki) reported for this compound CC(C)COc1ccccc1S(=O)(=O)NC(C=O)CC(=O)O (stereo not drawn) [Example 10] : 3.62

log10(Ki) reported for this compound CCCC(C)C(=O)Nc1ccccc1S(=O)(=O)N[C@H](C=O)CC(=O)O (stereo partly drawn) [Example 11] : 4.23

log10(Ki) reported for this compound Cc1cccc(Oc2ccccc2S(=O)(=O)NC(C=O)CC(=O)O)c1C (stereo not drawn) [Example 24] : 3.00

log10(Ki) reported for this compound O=CC(CC(=O)O)NS(=O)(=O)c1ccccc1OCc1ccccc1 (stereo not drawn) [Example 23] : 2.90

log10(Ki) reported for this compound Cc1ccccc1Oc1ccccc1S(=O)(=O)NC(C=O)CC(=O)O (stereo not drawn) [Example 12] : 3.48

log10(Ki) reported for this compound Cc1ccc(S(=O)(=O)NC(C=O)CC(=O)O)c(Oc2ccccc2)c1 (stereo not drawn) [Example 45] : 4.26

log10(Ki) reported for this compound Cc1cccc(S(=O)(=O)NC(C=O)CC(=O)O)c1Oc1ccccc1 (stereo not drawn) [Example 38] : 2.83

log10(Ki) reported for this compound CC(C)c1ccc(Oc2ccccc2S(=O)(=O)NC(C=O)CC(=O)O)cc1 (stereo not drawn) [Example 6] : 2.73

log10(Ki) reported for this compound CCC(C)c1ccc(Oc2ccccc2S(=O)(=O)NC(C=O)CC(=O)O)cc1C (stereo not drawn) [Example 28] : 2.00

Ref: patent US6083981A
